assay_system: Recombinant human ENPP3 protein (Homo sapiens (Human))
experimental_protocol: ENPP3 cGAMP Biochemical Assay
condition_context: 70.5 nM ENPP3, 120 μM 2′3′-cGAMP substrate, TR-FRET
pIC50: −log10 of the molar value.
quantity: pIC50

Here is how some molecules turned out for pIC50.
C#CCn1nc(Cl)c2c(NCc3ccc(S(N)(=O)=NC#N)cc3)ccnc21 (stereo not shown) [Compound 12I]; > 8.00
CN=S(N)(=O)N1CCC(CNc2ccnc3c2c(Cl)nn3CC#N)CC1 (stereo not shown) [Compound 15A]; 7.00 to 8.00
C#CCn1nc(Cl)c2c(NCc3ccc([S@](=N)(=O)NC#N)cc3)ccnc21 [Compound 12J]; > 8.00
CCn1nc(Cl)c2c(NCc3ccc(S(=N)(=O)CC)cc3)ccnc21 (stereo not shown); 6.00 to 7.00
CCn1nc(Cl)c2c(Nc3ccc(S(N)(=O)=NC#N)cc3)ccnc21 (stereo not shown); ≤ 6.00

Exam item: Any idea what pIC50 was measured for CCn1ncc2c(NCc3ccc(S(N)(=O)=NC#N)cc3)ccnc21 (stereo not shown) [Compound 12G] ?
Marked response: 6.00 to 7.00

Exam item: Any idea what pIC50 was measured for N=S(N)(=O)c1ccc(CNc2ccnc3[nH]nc(-c4ccccc4)c23)cc1 (stereo not shown) ?
Marked response: 7.00 to 8.00

Exam item: Any idea what pIC50 was measured for CCn1ncc2c(NCC3CCN([S@](C)(=N)=O)CC3)ccnc21 [Compound 14H] ?
Marked response: ≤ 6.00

Exam item: Any idea what pIC50 was measured for CN[S@](=N)(=O)c1ccc(CNc2ccnc3c2c(Cl)nn3CC#N)cc1 [Compound 10E] ?
Marked response: 6.00 to 7.00

Exam item: Any idea what pIC50 was measured for CCn1ncc2c(NCc3ccc(S(=N)(N)=O)cc3)ncnc21 (stereo not shown) ?
Marked response: ≤ 6.00

Exam item: Any idea what pIC50 was measured for CCn1nc(Cl)c2c(NCC3CCN([S@](C)(=N)=O)CC3)ccnc21 [Compound 13H] ?
Marked response: ≤ 6.00

Exam item: Any idea what pIC50 was measured for CS(=N)(=O)N1CCC(CNc2ccnc3c2c(Cl)nn3CC#N)CC1 (stereo not shown) [Compound 13D] ?
Marked response: 7.00 to 8.00

====

IC50 reference
assay_system: Recombinant human ENPP3 protein (Homo sapiens (Human), UniProt O14638)
Sequence (O14638 whole entry): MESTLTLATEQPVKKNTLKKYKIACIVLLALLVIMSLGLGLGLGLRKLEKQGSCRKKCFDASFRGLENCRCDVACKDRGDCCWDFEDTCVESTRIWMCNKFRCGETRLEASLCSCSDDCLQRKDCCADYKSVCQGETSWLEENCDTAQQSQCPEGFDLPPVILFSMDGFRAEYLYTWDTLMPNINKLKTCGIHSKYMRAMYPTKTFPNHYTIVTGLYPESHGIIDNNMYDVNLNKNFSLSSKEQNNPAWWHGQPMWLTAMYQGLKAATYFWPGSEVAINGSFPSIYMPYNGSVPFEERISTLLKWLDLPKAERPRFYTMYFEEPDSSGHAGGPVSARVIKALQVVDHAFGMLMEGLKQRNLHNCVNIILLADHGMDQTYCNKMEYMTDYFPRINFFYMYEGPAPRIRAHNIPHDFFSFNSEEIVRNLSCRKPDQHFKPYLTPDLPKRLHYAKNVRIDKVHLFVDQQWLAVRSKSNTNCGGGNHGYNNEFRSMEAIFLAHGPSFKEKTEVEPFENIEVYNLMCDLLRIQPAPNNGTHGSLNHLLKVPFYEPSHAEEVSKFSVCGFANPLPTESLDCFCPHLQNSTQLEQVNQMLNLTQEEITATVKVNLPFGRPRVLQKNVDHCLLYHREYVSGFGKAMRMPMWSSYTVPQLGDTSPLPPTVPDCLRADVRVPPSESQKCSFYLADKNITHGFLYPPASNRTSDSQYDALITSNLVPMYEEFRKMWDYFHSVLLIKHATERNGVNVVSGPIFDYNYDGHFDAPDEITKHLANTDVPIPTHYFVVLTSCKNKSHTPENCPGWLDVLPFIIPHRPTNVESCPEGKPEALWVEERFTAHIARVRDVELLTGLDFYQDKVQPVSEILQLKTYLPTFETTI
experimental_protocol: ENPP3 cGAMP Biochemical Assay
condition_context: 70.5 nM ENPP3, 120 μM 2′3′-cGAMP substrate, TR-FRET

CCn1nc(Cl)c2c(Nc3ccc(S(N)(=O)=NCC4CC4)cc3)ccnc21 (stereo not drawn); 100 to 1000 nM
CCn1nc(Cl)c2c(NCC3CCN([S@@](=N)(=O)CCOC)CC3)ccnc21 [Compound 14C]; ≥ 1000 nM
C#CCn1nc(Cl)c2c(NCc3ccc(S(=N)(=O)NC)cc3)ccnc21 (stereo in doubt) [Compound 10B]; ≥ 1000 nM
C#CCn1nc(Cl)c2c(NCC3CCN(S(N)(=O)=NC)CC3)ccnc21 (stereo not drawn) [Compound 15D]; 10 to 100 nM
C#CCn1nc(Cl)c2c(NCc3ccc(S(C)(=N)=O)cc3)ccnc21 (stereo not drawn); 10 to 100 nM
C#CCn1nc(Cl)c2c(N(C)Cc3ccc([S@@](C)(=N)=O)cc3)ccnc21; ≥ 1000 nM
CCn1ncc2c(NCc3ccc(S(C)(=N)=O)cc3)ccnc21 (stereo not drawn); ≥ 1000 nM
CCn1ncc2c(NCc3ccc(S(N)(=O)=NC#N)cc3)ccnc21 (stereo not drawn) [Compound 3D]; 100 to 1000 nM

Exam item: Any idea what IC50 was measured for N#CCn1nc(Cl)c2c(NCC3CCN(S(N)(=O)=NC#N)CC3)ccnc21 (stereo not drawn) [Compound 15B] ?
Marked response: < 10 nM

====

assay_system: Recombinant human ENPP1 protein (Homo sapiens (Human), UniProt P22413)
Sequence (P22413 whole entry): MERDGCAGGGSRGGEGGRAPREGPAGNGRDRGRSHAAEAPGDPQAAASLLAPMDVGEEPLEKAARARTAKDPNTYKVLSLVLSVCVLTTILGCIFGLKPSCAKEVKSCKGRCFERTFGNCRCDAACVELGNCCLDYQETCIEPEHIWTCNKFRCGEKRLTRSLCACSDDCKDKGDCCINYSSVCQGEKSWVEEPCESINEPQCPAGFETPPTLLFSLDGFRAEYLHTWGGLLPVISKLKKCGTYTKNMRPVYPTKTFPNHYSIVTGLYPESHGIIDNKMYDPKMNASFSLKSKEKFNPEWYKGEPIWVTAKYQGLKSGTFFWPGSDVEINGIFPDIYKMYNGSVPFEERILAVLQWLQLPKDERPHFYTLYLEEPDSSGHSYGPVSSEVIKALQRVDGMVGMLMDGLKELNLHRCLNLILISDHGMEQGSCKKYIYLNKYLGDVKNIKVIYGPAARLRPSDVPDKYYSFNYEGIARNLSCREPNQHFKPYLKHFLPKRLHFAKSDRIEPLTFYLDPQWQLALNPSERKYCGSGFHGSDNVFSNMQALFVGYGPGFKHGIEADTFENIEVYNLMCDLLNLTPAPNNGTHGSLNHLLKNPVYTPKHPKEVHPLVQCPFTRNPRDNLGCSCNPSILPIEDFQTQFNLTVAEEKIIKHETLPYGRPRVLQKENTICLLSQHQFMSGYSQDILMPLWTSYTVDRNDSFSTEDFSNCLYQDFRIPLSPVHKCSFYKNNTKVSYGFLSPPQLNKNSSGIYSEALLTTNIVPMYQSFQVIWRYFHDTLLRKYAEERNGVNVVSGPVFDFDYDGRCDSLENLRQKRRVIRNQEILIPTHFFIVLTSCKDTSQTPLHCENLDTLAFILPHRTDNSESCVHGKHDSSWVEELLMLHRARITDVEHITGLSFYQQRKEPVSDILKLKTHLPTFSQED
experimental_protocol: ENPP1 cGAMP Biochemical Assay
condition_context: 0.5 nM ENPP1, 1000 nM 2′3′-cGAMP substrate, TR-FRET
Experimental: ENPP1 cGAMP Biochemical Assay Compounds were added to 384 well Proxiplate (PerkinElmer, Waltham MA) at 100 nl/well from DMSO stocks using Echo (Labcyte, San Jose CA). Recombinant human ENPP1 protein (R&D Systems, Minneapolis MN) was prepared in assay buffer (50 mM Tris pH7.5, 1 mM TCEP pH7.0, 2 mM MgCl2 and 0.005% Tween20) and added at 10 μl/well. […] TR-FRET signal was detected using Envision (PerkinElmer, Waltham MA).
pIC50: −log10 of the molar value.
pIC50 reference

CCn1nc(Cl)c2c(NCC3CCN([S@@](C)(=N)=O)CC3)ccnc21 [Compound 13G]; 7.00 to 8.00
C#CCn1nc(Cl)c2c(NCc3ccc([S@](C)(=N)=O)cc3)ccnc21; 7.00 to 8.00
C#CCn1nc(Cl)c2c(NCc3ccc([S@@](=N)(=O)NC#N)cc3)ccnc21 [Compound 12K]; > 8.00

Turning now to a further record.
Exam item: Any idea what pIC50 was measured for C#CCn1nc(Cl)c2c(NCc3ccc(S(C)(=O)=NC)cc3)ccnc21 (stereo not shown) [Compound 10A] ?
Marked response: 6.00 to 7.00

====

assay_system: Recombinant human ENPP1 protein (Homo sapiens (Human))
experimental_protocol: ENPP1 cGAMP Biochemical Assay
condition_context: 0.5 nM ENPP1, 1000 nM 2′3′-cGAMP substrate, TR-FRET
pIC50: −log10 of the molar value.
pIC50 reference

Here is how some compounds turned out for pIC50.
C#CCn1nc(Cl)c2c(N(C)Cc3ccc([S@@](C)(=N)=O)cc3)ccnc21; > 8.00
CCn1nc(Cl)c2c(NCC3CCN(S(=N)(=O)CCC#N)CC3)ccnc21 (stereo not shown) [Compound 14E]; 7.00 to 8.00
CCN=S(N)(=O)c1ccc(Nc2ccnc3c2c(Cl)nn3CC)cc1 (stereo not shown); > 8.00

Exam item: Reported pIC50 for Recombinant human ENPP1 protein (Homo sapiens (Human)), given C#CCn1nc(Cl)c2c(NCc3ccc([S@](=N)(=O)NC#N)cc3)ccnc21 [Compound 12J] ?
Marked response: > 8.00

Exam item: Reported pIC50 for Recombinant human ENPP1 protein (Homo sapiens (Human)), given C#CCn1nc(Cl)c2c(NCC3CCN([S@](C)(=O)=NC#N)CC3)ccnc21 [Compound 14J] ?
Marked response: 6.00 to 7.00

Exam item: Reported pIC50 for Recombinant human ENPP1 protein (Homo sapiens (Human)), given C#CCn1nc(Cl)c2c(NCC3CCN(S(=N)(N)=O)CC3)ccnc21 (stereo not shown) [Compound 15I] ?
Marked response: > 8.00

Exam item: Reported pIC50 for Recombinant human ENPP1 protein (Homo sapiens (Human)), given "CCn1nc(Cl)c2c(NCc3ccc([S@@](C)(=N)=O)cc3)ccnc21" ?
Marked response: 7.00 to 8.00

Exam item: Reported pIC50 for Recombinant human ENPP1 protein (Homo sapiens (Human)), given CCn1nc(Cl)c2c(NCc3ccc(S(=N)(=O)CC4CC4)cc3)ccnc21 (stereo not shown) ?
Marked response: > 8.00

Exam item: Reported pIC50 for Recombinant human ENPP1 protein (Homo sapiens (Human)), given N#CCn1nc(Cl)c2c(NCc3ccc(S(=N)(N)=O)cc3)ccnc21 (stereo not shown) [Compound 11B] ?
Marked response: > 8.00

Exam item: Reported pIC50 for Recombinant human ENPP1 protein (Homo sapiens (Human)), given CCn1nc(Cl)c2c(NCc3ccc(S(=N)(=O)CCOC)cc3)ccnc21 (stereo not shown) ?
Marked response: > 8.00

Exam item: Reported pIC50 for Recombinant human ENPP1 protein (Homo sapiens (Human)), given CN[S@](=N)(=O)c1ccc(CNc2ccnc3c2c(Cl)nn3CC#N)cc1 [Compound 10E] ?
Marked response: > 8.00

Exam item: Reported pIC50 for Recombinant human ENPP1 protein (Homo sapiens (Human)), given C#CCn1nc(Cl)c2c(NCc3ccc(S(N)(=O)=NC#N)cc3)ccnc21 (stereo not shown) [Compound 12I] ?
Marked response: > 8.00

Exam item: Reported pIC50 for Recombinant human ENPP1 protein (Homo sapiens (Human)), given CCn1ncc2c(Nc3ccc(S(N)(=O)=NCC4CC4)cc3)ccnc21 (stereo not shown) ?
Marked response: 7.00 to 8.00

Exam item: Reported pIC50 for Recombinant human ENPP1 protein (Homo sapiens (Human)), given C[S@](=N)(=O)N1CCC(CNc2ccnc3c2c(Cl)nn3CC#N)CC1 [Compound 13F] ?
Marked response: 6.00 to 7.00

Exam item: Reported pIC50 for Recombinant human ENPP1 protein (Homo sapiens (Human)), given CCn1nc(Cl)c2c(NCC3CCN([S@@](=N)(=O)CCOC)CC3)ccnc21 [Compound 14C] ?
Marked response: 7.00 to 8.00

Exam item: Reported pIC50 for Recombinant human ENPP1 protein (Homo sapiens (Human)), given CS(=N)(=O)c1ccc(CNc2ccnc3c2c(Cl)nn3CC#N)cc1 (stereo not shown) ?
Marked response: > 8.00

Exam item: Reported pIC50 for Recombinant human ENPP1 protein (Homo sapiens (Human)), given "C#CCn1nc(Cl)c2c(NCc3ccc([S@@](C)(=N)=O)cc3)ccnc21" ?
Marked response: > 8.00

Exam item: Reported pIC50 for Recombinant human ENPP1 protein (Homo sapiens (Human)), given CCn1nc(Cl)c2c(Nc3ccc(S(N)(=O)=NC(C)C)cc3)ccnc21 (stereo not shown) ?
Marked response: > 8.00

Exam item: Reported pIC50 for Recombinant human ENPP1 protein (Homo sapiens (Human)), given CCn1ncc2c(NCC3CCN(S(=N)(N)=O)CC3)ccnc21 (stereo not shown) ?
Marked response: 7.00 to 8.00

Exam item: Reported pIC50 for Recombinant human ENPP1 protein (Homo sapiens (Human)), given C#CCn1nc(Cl)c2c(NCC3CCN([S@@](C)(=N)=O)CC3)ccnc21 [Compound 13C] ?
Marked response: > 8.00

Exam item: Reported pIC50 for Recombinant human ENPP1 protein (Homo sapiens (Human)), given "C[S@@](=N)(=O)c1ccc(CNc2ccnc3c2c(Cl)nn3CC#N)cc1" ?
Marked response: > 8.00

Exam item: Reported pIC50 for Recombinant human ENPP1 protein (Homo sapiens (Human)), given CCn1nc(Cl)c2c(NCC3CCN(S(=N)(=O)CCOC)CC3)ccnc21 (stereo not shown) [Compound 14B] ?
Marked response: 7.00 to 8.00
